tested on: HT-29; experiment: NCI tumour cell line growth inhibition, 48 h
Activity calls are given as the source filed them. Cut-off read from the data, not from the text of the source: active = GI50 up to about 1.1 µM and inactive = higher.
Classes to choose from: t for active, f for inactive

Answered cases to consult:
# molecule, class.name
rows = [
    ("COc1ccc(-c2nc3c(C(=O)NCCN(C)C)cccc3c3ccccc23)cc1", "f"),
    ("Cc1ccc(NC(Nc2ccc(C)cc2C)=C(/C=C(\\Cl)[N+](=O)[O-])[N+](=O)[O-])c(C)c1", "f"),
    ("Cc1ccc(-c2c(N)nc(NC#N)nc2CCC(=O)Nc2ccccc2[N+](=O)[O-])cc1", "f"),
    ("CCc1c(C)c(C#N)c(=S)n(C2OC(CO)C(O)C(O)C2O)c1C (stereo unspecified)", "f"),
    ("CO/N=C(\\C(=O)Nc1cncs1)c1csc(NC(c2ccccc2)(c2ccccc2)c2ccccc2)n1", "f"),
    ("O=CNc1cccc2c3c([nH]c12)CCCCCC3", "f"),
]

query: State the result this test recorded for `[N-]=[N+]=C1CNC(=O)NC1=O` .
result: f

Every entry's value here was drawn from ChEMBL document CHEMBL1201862.
